molecular target: Y178A (Corynebacterium diphtheriae, UniProt Q6NGJ3, Y178A); construct: gene DIP1520; CR domain, ChtA residues 112-291; N-terminal SUMO/6xHis tag removed by ULP1; apo-form; test: Isothermal titration calorimetry with apo-protein injected into hemin chloride at 25 °C in 50 mM Tris-HCl pH 8.0, 200 mM NaCl, 5% DMSO, fitted to a one-site binding model.; details: SEM, n = 3
Sequence (Q6NGJ3 112-291 Y178A): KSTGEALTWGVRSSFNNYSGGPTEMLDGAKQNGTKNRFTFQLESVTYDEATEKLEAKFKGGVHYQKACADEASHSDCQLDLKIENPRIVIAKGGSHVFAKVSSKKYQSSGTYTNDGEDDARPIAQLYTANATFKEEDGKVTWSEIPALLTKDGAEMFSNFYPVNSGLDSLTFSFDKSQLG
endpoint label: Kd (nM)
// note: answer is a bare numeric in nM

Query (compound): "C=CC1=C(C)c2cc3[nH]c(cc4nc(cc5[nH]c(cc1n2)c(C)c5CCC(=O)O)C(CCC(=O)O)=C4C)c(C)c3C=C.[Fe+3]" ; field requested: Kd
46.6

Where do these numbers come from? They come from paper PMC12494546.
